- PROTOCOL_DETAILS: in vitro
- Assay type: in vitro ADME
- ASSAY_CONTEXT: human, s9, pH 7.4
REPORTED_PROPERTY: half-life at 2 μM (min)
Answer in min, number only, no unit symbol.

Q: Form field: reported half-life at 2 μM of N#C[C@@]1(c2ccc3c(N)ncnn23)O[C@H](COC(=O)OC2CNC2)[C@H]2OC(=O)CCCC(=O)O[C@H]21 [Compound C50, 2,2,2-trifluoroacetate]
Result: 1.91

Q: Another: CC(C)OC(=O)OC[C@H]1O[C@@](C#N)(c2ccc3c(N)ncnn23)[C@@H]2OC(=O)OCCC=CCCOC(=O)O[C@@H]21 [Compound C52]
Result: 0.6

Q: Same thing, different compound: N#C[C@@]1(c2ccc3c(N)ncnn23)O[C@H](COC(=O)OC2CCOCC2)[C@H]2OC(=O)CCCC(=O)O[C@H]21 [Compound C16]
Result: 0.605

Q: Also, CC(C)OC(=O)OC[C@H]1O[C@@](C#N)(c2ccc3c(N)ncnn23)[C@@H]2OC(=O)CCCC(=O)O[C@@H]21 [Compound C2] please.
Result: 0.616

Q: Also CN1[C@@H]2CC[C@H]1C[C@@H](OC(=O)OC[C@H]1O[C@@](C#N)(c3ccc4c(N)ncnn34)[C@@H]3OC(=O)CC(C)(C)CC(=O)O[C@@H]31)C2 [Compound C47] , if possible.
Result: 99.4

Q: Repeat with CC(C)OC(=O)OC[C@H]1O[C@@](C#N)(c2ccc3c(N)ncnn23)[C@@H]2OC(=O)CCCCCC(=O)O[C@@H]21 [Compound C6]
Result: 0.637

Q: Would you kindly repeat that for CCOC(=O)[C@@H]1[C@H](OC(=O)OC[C@H]2O[C@@](C#N)(c3ccc4c(N)ncnn34)[C@@H]3OC(=O)CCCC(=O)O[C@@H]32)CCN1C [Compound C32] ?
Result: 0.566

Q: What would you report for CC(C)[C@H](N)C(=O)OC[C@H]1O[C@@](C#N)(c2ccc3c(N)ncnn23)[C@@H]2OC(=O)CCCC(=O)O[C@@H]21 [Compound C59] ?
Result: 0.586

Q: Also, CCC(CC)COC(=O)OC[C@H]1O[C@@](C#N)(c2ccc3c(N)ncnn23)[C@@H]2OC(=O)CCCC(=O)O[C@@H]21 [Compound C21] please.
Result: 0.637

Q: Check CC1(C)CC(=O)O[C@H]2[C@@H](OC(=O)C1)[C@](C#N)(c1ccc3c(N)ncnn13)O[C@@H]2COC(=O)OC(C)(C)C(F)F [Compound C42] too.
Result: 27.7

Q: Also CC(C)COC(=O)OC[C@H]1O[C@@](C#N)(c2ccc3c(N)ncnn23)[C@@H]2OC(=O)CCCC(=O)O[C@@H]21 [Compound C18] ?
Result: 0.724

Q: Try this compound too: CC1(C)CC(=O)O[C@H]2[C@@H](OC(=O)C1)[C@](C#N)(c1ccc3c(N)ncnn13)O[C@@H]2COC(=O)OC1CCOC1 (stereo partly drawn) [Compound C40]
Result: 5.83

Q: Entry to check: CC(C)(OC(=O)OC[C@H]1O[C@@](C#N)(c2ccc3c(N)ncnn23)[C@@H]2OC(=O)CCCC(=O)O[C@@H]21)C(F)F [Compound C25]
Result: 0.559

Q: Same lookup for N#C[C@@]1(c2ccc3c(N)ncnn23)O[C@H](CO)[C@H]2OC(=O)CCCC(=O)O[C@H]21 [Compound C10] , please.
Result: 0.768

Q: Now consider CC(C)OC(=O)OC[C@H]1O[C@@](C#N)(c2ccc3c(N)ncnn23)[C@@H]2OC(=O)CCC=CCCC(=O)O[C@@H]21 [Compound C9] .
Result: 0.655

Q: Cool, now CC(C)C(=O)OC[C@H]1O[C@@](C#N)(c2ccc3c(N)ncnn23)[C@@H]2OC(=O)CCCC(=O)O[C@@H]21 [Compound C54]
Result: 0.589

Q: Here is the next compound: CCOC(=O)C(C)(C)OC(=O)OC[C@H]1O[C@@](C#N)(c2ccc3c(N)ncnn23)[C@@H]2OC(=O)CC(C)(C)CC(=O)O[C@@H]21 [Compound C43]
Result: 19.7

Q: And then CC1(C)CC(=O)O[C@H]2[C@@H](OC(=O)C1)[C@](C#N)(c1ccc3c(N)ncnn13)O[C@@H]2COC(=O)OC(CF)CF [Compound C44] , what is it?
Result: 1.22

Q: Moving on to CC1(C)CC(=O)O[C@H]2[C@@H](OC(=O)C1)[C@](C#N)(c1ccc3c(N)ncnn13)O[C@@H]2COC(=O)OC1CNC1 [Compound C51, 2,2,2-trifluoroacetate]
Result: 26.6

Q: Ok, now CC(C)[C@H](NC(=O)OC(C)(C)C)C(=O)OC[C@H]1O[C@@](C#N)(c2ccc3c(N)ncnn23)[C@@H]2OC(=O)CCCC(=O)O[C@@H]21 [Compound C58]
Result: 0.577

Q: Item: N#CC1(COC(=O)OC[C@H]2O[C@@](C#N)(c3ccc4c(N)ncnn34)[C@@H]3OC(=O)CCCC(=O)O[C@@H]32)CC1 [Compound C24]
Result: 0.565

Q: Would you kindly repeat that for CC(C)COC(=O)OC[C@H]1O[C@@](C#N)(c2ccc3c(N)ncnn23)[C@@H]2OC(=O)CC(C)(C)CC(=O)O[C@@H]21 [Compound C35] ?
Result: 0.609

Q: Also check CC(C)(C)COC(=O)OC[C@H]1O[C@@](C#N)(c2ccc3c(N)ncnn23)[C@@H]2OC(=O)CC(C)(C)CC(=O)O[C@@H]21 [Compound C46]
Result: 4.71

Q: Subsequent entry: CC1(C)CC(=O)O[C@H]2[C@@H](OC(=O)C1)[C@](C#N)(c1ccc3c(N)ncnn13)O[C@@H]2COC(=O)O[C@H]1C(C)(C)[C@H]2CC[C@@]1(C)C2 [Compound C45]
Result: 37.3

Origin of values: patent US20240417411A1
